Please provide measured cytotoxicity at 70.5 h for the entries that follow.
# Protocol Notes: Human HepG2 cell viability assay in 384 well format
# Format: toxicity, cell-based
# Parameters: dose 125 nL, time 70.5 hour; concentration not given beside the values
# Study Conditions: HepG2 cells, read-out: Inhibition
Provide the reading as a plain figure in %.

Quick check: cytotoxicity at 70.5 h of COCC(=O)N1C[C@H]2CN(Cc3cccc(F)c3)C(=O)[C@H]2C1 ?
8.07

Would you mind doing Cc1nc(C)c(C(=O)NCCn2nc3ccccn3c2=O)s1 as well?
-1.89

Cool, now CCS(=O)(=O)NCc1cccnc1N1CCCC(O)C1 (stereo not drawn)
-26.9

Then this compound: CC(NC(=O)N1CCC(n2cncn2)CC1)c1ccc(F)cc1 (stereo not drawn)
-6.99

Input CC(C)C(O)CNC(=O)Nc1cccc(-c2nccs2)c1 (stereo not drawn)
-3.11

Further, for Cc1ccc(CN2Cc3ccccc3O[C@]3(CC[C@H](CO)CC3)C2)o1 ?
52

Consider next the compound Cc1nn(CCO)c(C)c1CN1CCN(C2CCCCC2)C(=O)C1 in the same way.
0.129

Please give the result for Cc1occc1C(=O)N1CCC2(CCCN(CC3CC3)C2=O)C1 (stereo not drawn) too.
-15

Another compound to look at: Cn1cccc1C(=O)N1CCCCC1c1[nH]ncc1S(C)(=O)=O (stereo not drawn)
-5.18

Likewise for Fc1ccccc1-c1nccnc1C1CCCNC1 (stereo not drawn) ?
-8.72

Same question for Cc1nc(C2CCCN2Cc2ccc(S(=O)(=O)N(C)C)o2)no1 (stereo not drawn) please.
-5.97

Same thing, different compound: O=C(NC[C@H]1OC[C@@H]2CCN(Cc3ccco3)C[C@@H]21)c1ccnnc1
-1.68

# iterate: COc1ccc(CCN2CC(NCc3ncc[nH]3)CC2=O)cc1 (stereo not drawn)
-7.01

What do you have for CCN(CC1CCCO1)C(=O)Nc1cccc(Cl)c1OC (stereo not drawn) ?
24.1

Now consider Cc1cc(N2CCC(N(C)C(=O)c3ccccc3)CC2)nc(C)n1 .
-0.672

Next up: Cn1nc(C(=O)N2CCOCC2)cc1C(=O)Nc1ncc(Cl)cc1Cl
14.9

Same question for CC(C)CN1C(=O)CC[C@]12CC[C@@H](NC(=O)NCc1cccnc1)CC2 please.
-3.62

Moving on to Cc1cccc(CS(=O)(=O)CC(=O)N(C)Cc2ccccc2F)c1
-6.9
